VALUE TYPE: melting point

Here are 3 compounds together with their reported answers.
INSERT INTO results (compound, value_type, measured_result) VALUES
  ('COc1ccc(N(CCCC(=O)O)C(=O)C(C)N(C(=O)c2ccco2)c2ccc(OC)cc2)cc1 (configuration not stated)', 'melting point', '204 to 206 °C'),
  ('COc1cc(C=Cc2conc2C)cc(Br)c1O', 'melting point', '178 to 180 °C'),
  ('CC(C)(C)CNc1nc(-c2[nH]c(C(C)(C)C)nc2-c2ccccc2)ccc1[N+](=O)[O-]', 'melting point', '224 to 226 °C');

Request: melting point for N#CC1(c2ccc(Cl)cc2)C2CC3CC(C2)CC1C3 (configuration not stated) ?
Result: 132 to 133 °C

Request: Same question for CCn1ncc2c1ncc1c(=O)[nH]c3nc(S(C)=O)nn3c12 (configuration not stated) please.
Result: > 300 °C

----------
Below: a set of entries, each annotated with reported melting point.

Here are 2 molecules together with their reported answers.
INSERT INTO assay_data (compound_structure, value_type, measured_result) VALUES
  ('O=C1NCCc2cc(I)ccc21', 'melting point', '> 300 °C'),
  ('O=C(O)CCc1cn(Cc2ccc(OCc3cccnc3)cc2)cc1-c1ccccc1', 'melting point', '131 to 132 °C');

Request: melting point for COc1cc(N2CCCN(C[C@@H](C)O)CC2)ccc1Nc1ncc2ccc(-c3ccccc3OC)n2n1 ?
Result: 70 to 79 °C

----------
VALUE TYPE: melting point

Here are 5 molecules together with their reported answers.
INSERT INTO assay_data (molecule, measured_result) VALUES
  ('CCCc1ncc(CN2CCN(c3ccccc3OC)CC2)c(N)n1', '130 °C'),
  ('O=C(OCc1ccccc1)c1ccc2cc(-c3ccc(CC(O)CO)c(C45CC6CC(CC(C6)C4)C5)c3)ccc2c1 (stereo not given)', '200 °C'),
  ('Nc1nc(Cl)c(Cl)nc1[N+](=O)[O-]', '169 to 170 °C'),
  ('Oc1ncc(-c2ccccc2)cn1', '239 to 241 °C'),
  ('COc1cc(CCC(=O)CC(=O)c2ccccc2)ccc1O', '76 to 78 °C');

Request: melting point for O=C(O)c1ccc(C(=O)NS(=O)(=O)c2ccccc2)cc1 ?
Result: 259 to 261 °C

Request: Same question for Oc1ccc(F)c(-c2c(-c3ccccc3)cnc3c(C(F)(F)F)cccc23)c1 please.
Result: 85 °C

Request: Same question for CCOC(=O)c1cc2c(-c3ccc(C(F)(F)F)n(C)c3=O)c(F)cc(Cl)c2o1 please.
Result: 118 to 120 °C

Request: Same question for CC(C)c1cccc(C(C)C)c1NC(=O)CN1CCCN(CCCSc2nc3ccccc3o2)CC1 please.
Result: 109 to 111 °C

Request: Same question for Cc1cccc(C)c1N1CC(C)N(c2c(C)cccc2C)C1=NC(=O)C(F)(F)F (stereo not given) please.
Result: 232 to 235 °C

Request: Same question for O=C(CF)CS(=O)(=O)C(c1ccc(Cl)cc1)c1ccc(Cl)cc1 please.
Result: 55 to 58 °C

Request: Same question for CCC(CSC#N)Nc1ccc(Cl)cc1[N+](=O)[O-] (stereo not given) please.
Result: 126 to 128 °C

Request: Same question for COC(=O)c1cccc2c1Nc1c(I)cccc1C2 please.
Result: 105 to 107 °C

Request: Same question for CCCCCCOc1ccc2[nH]c(SC(C)(C(=O)O)c3ccccc3)cc2c1 (stereo not given) please.
Result: 100 to 102 °C

Request: Same question for CCOC(=O)c1cn(CCc2ccccc2)c2oc(CN3CCOCC3)cc2c1=O please.
Result: 150 to 153 °C

Request: Same question for Nc1ccc2oc(-c3ccccc3)c(O)c(=O)c2c1 please.
Result: 211 to 212 °C

Request: Same question for CCCCCCCCNc1nc(NCC(O)C2CC(C)(C)NC(C)(C)C2)nc(NCC(O)C2CC(C)(C)NC(C)(C)C2)n1 (stereo not given) please.
Result: 117 to 119 °C

Request: Same question for CN1CCN(C=Nc2ccc3nnc(-c4ccc([N+](=O)[O-])o4)n3n2)CC1 please.
Result: 247 to 248 °C

Request: Same question for CCOC(=O)c1cccc(Nc2ncc3cc(-c4c(Cl)cccc4Cl)c(=O)n(C)c3n2)c1 please.
Result: 238 to 240 °C

Request: Same question for BrCCCCCCOc1ccc(C2c3ccc(OCc4ccccc4)cc3OCC2c2ccccc2)cc1 (stereo not given) please.
Result: 96.2 to 96.7 °C
